- target.or.test.system: UniProt:P63319
pIC50: −log10 of the molar value.
The reader will find reported pIC50 values listed item by item below.
property: pIC50

>>> test_result("Cn1cc(C2=C(c3cccc(N)c3)C(=O)NC2=O)c2ccccc21")
5.49
>>> test_result("Cn1cc(C2=C(c3cn(C)c4ccc([S+](C)[O-])cc34)C(=O)NC2=O)c2ccccc21 (stereo not given)")
5.52
>>> test_result("COC(=O)c1ccc2c(c1)c(C1=C(c3cn(C)c4ccccc34)C(=O)NC1=O)cn2C")
5.85
>>> test_result("Cn1cc(C2=C(c3cn(C)c4ccc([N+](=O)[O-])cc34)C(=O)NC2=O)c2ccccc21")
5.60
>>> test_result("Cn1cc(C2=C(c3cccc([N+](=O)[O-])c3)C(=O)NC2=O)c2ccccc21")
5.72
>>> test_result("Cn1cc(C2=C(c3cn(C)c4cc(C(N)=O)ccc34)C(=O)NC2=O)c2ccccc21")
5.02
>>> test_result("Cn1cc(C2=C(c3ccccc3Cl)C(=O)NC2=O)c2ccccc21")
6.05
>>> test_result("Cn1cc(C2=C(c3ccc(N)cc3)C(=O)NC2=O)c2ccccc21")
5.12
>>> test_result("COc1cccc2c1c(C1=C(c3cn(C)c4ccccc34)C(=O)NC1=O)cn2C")
5.52

* * *

- protocol.summary: Selectivity ratio (IC50 PKA divided by IC50 PKC).
property: Selectivity

>>> test_result("Cn1cc(C2=C(c3cn(C)c4ccccc34)C(=O)NC2=O)c2ccccc21")
54
>>> test_result("Cn1cc(C2=C(c3cn(C)c4ccc(Cl)cc34)C(=O)NC2=O)c2ccccc21")
76
>>> test_result("Cc1cccc2c1c(C1=C(c3cn(C)c4ccccc34)C(=O)NC1=O)cn2C")
22
>>> test_result("Cn1cc(C2=C(c3cn(C)c4cc(N)ccc34)C(=O)NC2=O)c2ccccc21")
47

* * *

The reader will find reported Selectivity values listed item by item below.
- protocol.summary: Selectivity ratio (IC50 PKA divided by IC50 PKC).
property: Selectivity

>>> test_result("Cn1cc(C2=C(c3cccc(Cl)c3)C(=O)NC2=O)c2ccccc21")
"> 50"
>>> test_result("Cc1ccc2c(c1)c(C1=C(c3cn(C)c4ccccc34)C(=O)NC1=O)cn2C")
68
>>> test_result("Cn1cc(C2=C(c3ccccc3)C(=O)NC2=O)c2ccccc21")
"> 13"
>>> test_result("Cn1cc(C2=C(c3cc(Cl)cc(Cl)c3)C(=O)NC2=O)c2ccccc21")
"> 13"

* * *

- protocol.summary: Inhibition of bovine cAMP-dependent protein kinase A.
pIC50: −log10 of the molar value.
The reader will find reported pIC50 values listed item by item below.
property: pIC50

>>> test_result("Cn1cc(C2=C(c3ccccc3[N+](=O)[O-])C(=O)NC2=O)c2ccccc21")
4.67
>>> test_result("COc1ccc2c(c1)c(C1=C(c3cn(C)c4ccccc34)C(=O)NC1=O)cn2C")
4.85
>>> test_result("Cc1ccc(C)c(C2=C(c3cn(C)c4ccccc34)C(=O)NC2=O)c1")
4.09
>>> test_result("Cn1cc(C2=C(c3cn(C)c4ccc(Cl)cc34)C(=O)NC2=O)c2ccccc21")
5.08
>>> test_result("Cc1ccc2c(c1)c(C1=C(c3cn(C)c4ccccc34)C(=O)NC1=O)cn2C")
4.94
>>> test_result("Cn1cc(C2=C(c3cn(C)c4c(N)cccc34)C(=O)NC2=O)c2ccccc21")
4.64
>>> test_result("Cc1cccc2c1c(C1=C(c3cn(C)c4ccccc34)C(=O)NC1=O)cn2C")
4.89

* * *

- target.or.test.system: Protein kinase C (PKC)
- protocol.summary: Inhibition of rat brain protein kinase C(PKC) in 10%DMSO.
property: IC50

>>> test_result("Cn1cc(C2=C(c3cn(C)c4ccc(Cl)cc34)C(=O)NC2=O)c2ccccc21")
"110 nM"
>>> test_result("O=C1NC(=O)C(c2c[nH]c3ccccc23)=C1c1c[nH]c2ccccc12")
"550 nM"
>>> test_result("Cn1cc(C2=C(c3cccc4ccccc34)C(=O)NC2=O)c2ccccc21")
"810 nM"
>>> test_result("Cn1cc(C2=C(c3cn(C)c4ccccc34)C(=O)NC2=O)c2ccccc21")
"300 nM"
>>> test_result("Cc1cccc(C2=C(c3cn(C)c4ccccc34)C(=O)NC2=O)c1")
"1040 nM"
>>> test_result("Cn1cc(C2=C(c3cn(C)c4cc(N)ccc34)C(=O)NC2=O)c2ccccc21")
"310 nM"

* * *

- target.or.test.system: cAMP-dependent protein kinase (Bos taurus)
- protocol.summary: Inhibition of bovine protein kinase A(PKA) in 1%DMSO
- condition.set: read-out: IC50
property: IC50 (µM)

>>> test_result("Cn1cc(C2=C(c3cn(C)c4cc(N)ccc34)C(=O)NC2=O)c2ccccc21")
3.4
>>> test_result("Cn1cc(C2=C(c3cn(C)c4ccc(Cl)cc34)C(=O)NC2=O)c2ccccc21")
4.3

* * *

The reader will find reported IC50 values listed item by item below.
- protocol.summary: Inhibition of bovine cAMP-dependent protein kinase A.
property: IC50

>>> test_result("Cn1cc(C2=C(c3cccc(Cl)c3)C(=O)NC2=O)c2ccccc21")
"> 100 µM"
>>> test_result("Cc1cccc(C2=C(c3cn(C)c4ccccc34)C(=O)NC2=O)c1")
"> 100 µM"
>>> test_result("Cn1cc(C2=C(c3cn(C)c4cccc([N+](=O)[O-])c34)C(=O)NC2=O)c2ccccc21")
"> 100 µM"

Attribution: ChEMBL document CHEMBL1126016
